# Procedure summary: Absorption spectra of dye solutions in water
# Format: physicochemical
# Measurement parameters: in water
Value kind: absorption maximum (nm)

CC1(C)C(/C=C/C(=C/C=C2/N(c3cccc(S(=O)(=O)[O-])c3)c3ccc(S(=O)(=O)[O-])cc3C2(C)C)c2ccc(C(=O)O)cc2)=[N+](c2cccc(S(=O)(=O)[O-])c2)c2ccc(S(=O)(=O)[O-])cc21.[Na+].[Na+].[Na+] | 658
CC1(C)C(/C=C/C(=C/C=C2/N(c3cccc(S(=O)(=O)O)c3)c3ccc4c(S(=O)(=O)[O-])cc(S(=O)(=O)O)cc4c3C2(C)C)c2ccc(C(=O)O)cc2)=[N+](c2cccc(S(=O)(=O)O)c2)c2ccc3c(S(=O)(=O)O)cc(S(=O)(=O)O)cc3c21 | 686
CC1(C)C(/C=C/C=C/C=C2/N(c3cccc(S(=O)(=O)O)c3)c3cc(S(=O)(=O)[O-])c4cc(S(=O)(=O)O)ccc4c3C2(C)C)=[N+](CCCCCC(=O)O)c2ccc(S(=O)(=O)O)cc21 | 664
CC1(C)C(/C=C/C=C2/N(c3cccc(S(=O)(=O)O)c3)c3cc(S(=O)(=O)[O-])c4cc(S(=O)(=O)O)ccc4c3C2(C)C)=[N+](CCCCCC(=O)O)c2ccc(S(=O)(=O)O)cc21 | 567
CCN1/C(=C/C=C(/C=C/C2=[N+](CC)c3cc(S(=O)(=O)O)c4cc(S(=O)(=O)O)ccc4c3C2(C)C)c2ccc(C(=O)O)cc2)C(C)(C)c2c1cc(S(=O)(=O)[O-])c1cc(S(=O)(=O)O)ccc21 | 673
